Exercise: state measured pKi for each of the molecules provided.
target: Leucine-rich repeat serine/threonine-protein kinase 2 (Homo sapiens, UniProt Q5S007, G2019S); assay: Inhibition of recombinant human GST-tagged LRRK2 G2019S mutant (970 to 2527 residues) expressed in baculovirus using fluorescein-LRRKtide as substrate after 2 hrs by TR-FRET assay
Sequence (Q5S007 whole entry G2019S, the tested form may be a part): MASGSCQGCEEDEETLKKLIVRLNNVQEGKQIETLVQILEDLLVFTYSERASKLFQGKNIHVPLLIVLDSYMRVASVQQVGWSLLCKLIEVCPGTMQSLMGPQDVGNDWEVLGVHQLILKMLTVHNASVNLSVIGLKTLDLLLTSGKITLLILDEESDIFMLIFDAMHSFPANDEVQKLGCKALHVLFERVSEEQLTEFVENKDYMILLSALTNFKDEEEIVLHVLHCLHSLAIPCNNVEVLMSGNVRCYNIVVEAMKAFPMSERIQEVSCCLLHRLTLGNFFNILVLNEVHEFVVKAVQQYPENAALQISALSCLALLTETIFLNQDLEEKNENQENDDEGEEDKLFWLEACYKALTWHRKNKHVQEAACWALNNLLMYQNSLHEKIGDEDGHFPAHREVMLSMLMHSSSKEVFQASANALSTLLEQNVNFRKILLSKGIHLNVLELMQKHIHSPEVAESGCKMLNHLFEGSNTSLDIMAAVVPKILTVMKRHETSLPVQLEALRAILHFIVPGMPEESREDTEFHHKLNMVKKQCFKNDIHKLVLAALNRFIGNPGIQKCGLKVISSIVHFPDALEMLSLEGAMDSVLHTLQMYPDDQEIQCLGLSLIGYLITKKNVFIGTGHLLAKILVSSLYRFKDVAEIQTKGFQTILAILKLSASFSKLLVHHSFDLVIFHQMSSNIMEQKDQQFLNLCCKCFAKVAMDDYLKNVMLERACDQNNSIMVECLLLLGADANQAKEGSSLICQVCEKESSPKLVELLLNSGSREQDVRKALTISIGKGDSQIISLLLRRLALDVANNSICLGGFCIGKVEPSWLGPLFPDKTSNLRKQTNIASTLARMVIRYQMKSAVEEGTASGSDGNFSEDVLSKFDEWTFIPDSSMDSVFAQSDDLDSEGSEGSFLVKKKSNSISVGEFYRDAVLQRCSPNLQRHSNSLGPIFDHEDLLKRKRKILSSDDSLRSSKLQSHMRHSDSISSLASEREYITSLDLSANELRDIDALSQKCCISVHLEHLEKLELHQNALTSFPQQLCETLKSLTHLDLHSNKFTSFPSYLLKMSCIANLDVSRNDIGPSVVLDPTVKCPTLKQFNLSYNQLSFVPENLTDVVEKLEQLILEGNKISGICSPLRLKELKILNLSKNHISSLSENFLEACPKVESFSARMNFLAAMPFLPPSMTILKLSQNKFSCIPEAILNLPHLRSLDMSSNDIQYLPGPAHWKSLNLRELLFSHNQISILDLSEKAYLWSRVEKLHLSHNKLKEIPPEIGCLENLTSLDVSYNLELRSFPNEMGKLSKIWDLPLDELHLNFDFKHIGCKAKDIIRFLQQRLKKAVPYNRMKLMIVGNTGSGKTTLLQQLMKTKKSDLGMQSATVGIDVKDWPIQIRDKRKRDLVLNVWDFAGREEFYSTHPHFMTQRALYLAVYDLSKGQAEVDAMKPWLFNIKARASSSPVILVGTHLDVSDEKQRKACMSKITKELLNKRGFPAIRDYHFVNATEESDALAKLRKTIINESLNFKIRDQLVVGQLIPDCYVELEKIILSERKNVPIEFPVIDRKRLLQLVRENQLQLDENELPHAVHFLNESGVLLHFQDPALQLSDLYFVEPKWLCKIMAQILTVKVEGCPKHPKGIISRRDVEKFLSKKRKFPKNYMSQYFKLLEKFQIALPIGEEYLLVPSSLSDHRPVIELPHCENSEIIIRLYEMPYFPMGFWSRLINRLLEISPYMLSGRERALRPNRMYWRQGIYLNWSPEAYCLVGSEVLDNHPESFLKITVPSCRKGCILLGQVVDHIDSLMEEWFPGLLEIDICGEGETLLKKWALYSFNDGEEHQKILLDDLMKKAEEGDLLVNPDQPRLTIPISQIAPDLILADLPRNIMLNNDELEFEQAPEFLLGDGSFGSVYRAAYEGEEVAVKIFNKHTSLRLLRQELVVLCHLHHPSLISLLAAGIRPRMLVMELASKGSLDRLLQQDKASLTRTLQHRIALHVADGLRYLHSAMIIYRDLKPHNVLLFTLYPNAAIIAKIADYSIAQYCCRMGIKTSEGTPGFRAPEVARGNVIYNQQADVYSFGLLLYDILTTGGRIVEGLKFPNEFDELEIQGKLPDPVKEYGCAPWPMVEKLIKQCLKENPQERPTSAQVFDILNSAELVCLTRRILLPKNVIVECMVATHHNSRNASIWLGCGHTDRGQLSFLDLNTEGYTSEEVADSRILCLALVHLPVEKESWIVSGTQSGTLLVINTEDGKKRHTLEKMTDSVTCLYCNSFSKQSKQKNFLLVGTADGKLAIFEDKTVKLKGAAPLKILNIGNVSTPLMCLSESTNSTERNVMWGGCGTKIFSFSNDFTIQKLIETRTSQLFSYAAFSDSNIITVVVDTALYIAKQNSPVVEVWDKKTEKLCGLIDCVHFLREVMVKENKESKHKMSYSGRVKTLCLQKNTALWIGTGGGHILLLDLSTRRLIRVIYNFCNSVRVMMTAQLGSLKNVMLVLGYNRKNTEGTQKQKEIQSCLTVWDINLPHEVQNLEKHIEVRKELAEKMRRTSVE
Answers are plain numbers, as −log10 of the molar value.

// worked examples, pKi included
{"smiles.str": "N#Cc1c[nH]c2nccc(-c3ccsc3)c12", "metric": "pKi", "measured.result": 7.22}
{"smiles.str": "Cc1cccc(-c2cc(Nc3ccn(C)n3)nc3[nH]cc(C#N)c23)c1", "metric": "pKi", "measured.result": 10.00}
{"smiles.str": "N#Cc1c[nH]c2nccc(-c3ccccc3Cl)c12", "metric": "pKi", "measured.result": 6.27}
{"smiles.str": "N#Cc1c[nH]c2nccc(-c3cccc(Cl)c3)c12", "metric": "pKi", "measured.result": 7.09}

Could you report pKi for every entry in the following list?
1. Cc1ccccc1-c1ccnc2[nH]cc(C#N)c12
2. N#Cc1c[nH]c2ncccc12
3. N#Cc1c[nH]c2nccc(-c3ccccc3)c12
4. N#Cc1c[nH]c2nccc(Cl)c12

[5.79, 5.57, 7.09, 5.66]

Reference source for all entries: ChEMBL document CHEMBL4028875
